The reported numbers originate from patent US20130317045A1.

Please consider the recorded Kd for JAK2 (Homo sapiens) in what follows.

[
  {
    "MOLECULE": "COC(c1ccc(F)cc1)c1nc(Nc2cc(C)[nH]n2)c2ccsc2n1 (racemic)",
    "Kd": "≤ 1 nM"
  },
  {
    "MOLECULE": "Cc1cc(Nc2nc(C(F)(F)c3ccc(F)cc3)nc3cc(C(C)(C)C)sc23)n[nH]1",
    "Kd": "1 to 10 nM"
  },
  {
    "MOLECULE": "Cc1cc(Nc2nc(C(=O)c3ccc(F)cc3)nc3c(C)csc23)n[nH]1",
    "Kd": "1 to 10 nM"
  }
]

Exercise: GET /values?readout=Kd&system=JAK2 (Homo sapiens)&item= Cc1csc2nc(C(O)c3ccc(F)cc3)nc(Nc3cc[nH]n3)c12 (racemic)
Solution: > 10 nM
